Species on record: Rattus norvegicus
Experimental details: DrugMatrix - Regimen: Daily Repeat
Assay type: toxicity, organism-based, Sprague-Dawley
Parameters: regimen Daily Repeat, gender Male, age 6-8 weeks
Test conditions: in vivo, po, 0 mg/kg, 120 h, tissue Blood, route oral GAVAGE, dose level Control, time 5 day, vehicle 100 % WATER
Readout type: MONOCYTE
Please answer in the form of a number followed by its unit of measurement.

Previously resolved entries follow.
Compound	MONOCYTE
O.O.O.O.O.O.[Cl-].[Cl-].[Sr+2] [STRONTIUM CHLORIDE HEXAHYDRATE]	0.17%
Cc1ccc(NC(=O)c2ccc(CN3CCN(C)CC3)cc2)cc1Nc1nccc(-c2cccnc2)n1 [IMATINIB]	0.17%
CC(C)(C)CC(C)(C)c1ccc(OCCOCC[N+](C)(C)Cc2ccccc2)cc1.[Cl-] [BENZETHONIUM CHLORIDE]	1.17%

Prompt: Can you look up the measured MONOCYTE of CN(C)CCOC(c1ccccc1)c1ccccc1 [DIPHENHYDRAMINE] for me?
Response: 1.17%

Prompt: Can you look up the measured MONOCYTE of CCN(CC)CCNC(=O)c1cc(S(C)(=O)=O)ccc1OC [TIAPRIDE] for me?
Response: 0.17%

Prompt: Can you look up the measured MONOCYTE of C[C@]12C=CC(=O)C=C1CC[C@@H]1[C@@H]2[C@@H](O)C[C@@]2(C)[C@H]1CC[C@]2(O)C(=O)CO [PREDNISOLONE] for me?
Response: 0.5%
